# STUDY SYSTEM: ERK2 (Homo sapiens)
# Sequence (P28482 whole entry, species assumed): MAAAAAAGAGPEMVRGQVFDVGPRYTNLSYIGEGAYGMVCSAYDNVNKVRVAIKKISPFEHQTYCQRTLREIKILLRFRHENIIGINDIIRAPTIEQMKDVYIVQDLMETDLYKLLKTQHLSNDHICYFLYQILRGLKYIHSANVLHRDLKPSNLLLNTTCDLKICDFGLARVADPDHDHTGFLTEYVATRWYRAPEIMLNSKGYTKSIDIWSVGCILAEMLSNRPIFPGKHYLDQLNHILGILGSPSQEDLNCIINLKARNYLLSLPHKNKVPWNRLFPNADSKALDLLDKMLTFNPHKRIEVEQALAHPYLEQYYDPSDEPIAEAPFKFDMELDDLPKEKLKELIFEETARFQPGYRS
pIC50: −log10 of the molar value.

[
  {
    "COMPOUND": "O=C(NCc1ccco1)c1ccc2[nH]nc(/C=C/c3cccc(F)c3)c2c1 [Reference example 1, reference compound]",
    "STUDY SYSTEM": "ERK2 (Homo sapiens)",
    "pIC50": 6.15
  }
]

----------
# STUDY SYSTEM: Human JNK 3 (Homo sapiens, UniProt P53779)
# Construct: made in house; host or cells: Escherichia coli
# Sequence (P53779 whole entry): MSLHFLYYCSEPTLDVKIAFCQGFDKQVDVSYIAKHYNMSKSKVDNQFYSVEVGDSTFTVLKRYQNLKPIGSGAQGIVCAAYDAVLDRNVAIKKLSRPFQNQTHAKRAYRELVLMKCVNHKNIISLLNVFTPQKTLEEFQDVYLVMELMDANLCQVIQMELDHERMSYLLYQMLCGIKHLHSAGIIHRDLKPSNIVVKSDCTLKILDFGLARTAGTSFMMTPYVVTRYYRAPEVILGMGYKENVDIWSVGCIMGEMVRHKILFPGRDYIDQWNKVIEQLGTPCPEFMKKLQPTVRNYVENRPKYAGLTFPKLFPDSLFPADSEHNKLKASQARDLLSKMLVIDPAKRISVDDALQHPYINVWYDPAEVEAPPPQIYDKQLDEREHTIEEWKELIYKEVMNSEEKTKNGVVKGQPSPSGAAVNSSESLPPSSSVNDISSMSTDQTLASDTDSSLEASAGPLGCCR
# TEST METHOD NOTES: Measurement of JNK 3 inhibition (GST-JNK3, GST-c-Jun substrate, [γ-33P]ATP, SPA beads)
# Format: biochemical
# PARTICULARS: 50% inhibitory concentration on the enzymatic activity of JNK; 3.33 μM ATP in substrate solution, 30 minutes
pIC50: −log10 of the molar value.

[
  {
    "SMILES RECORD": "O=C(NCc1cccnc1)c1cc2c(/C=C/c3cccc(F)c3)n[nH]c2cc1F",
    "STUDY SYSTEM": "Human JNK 3 (Homo sapiens, UniProt P53779)",
    "pIC50": 6.71
  },
  {
    "SMILES RECORD": "Fc1ccc(/C=C/c2n[nH]c3c(F)cc(-c4ncc[nH]4)cc23)cc1",
    "STUDY SYSTEM": "Human JNK 3 (Homo sapiens, UniProt P53779)",
    "pIC50": 6.93
  },
  {
    "SMILES RECORD": "CNCc1nnc(-c2cc3c(/C=C/c4ccc(F)cc4)n[nH]c3cc2F)[nH]1",
    "STUDY SYSTEM": "Human JNK 3 (Homo sapiens, UniProt P53779)",
    "pIC50": 7.20
  }
]

----------
The entries below are paired with their reported pIC50.
# STUDY SYSTEM: Human JNK 3 (Homo sapiens, UniProt P53779)
# Construct: made in house; host or cells: Escherichia coli
# TEST METHOD NOTES: Measurement of JNK 3 inhibition (GST-JNK3, GST-c-Jun substrate, [γ-33P]ATP, SPA beads)
# Format: biochemical
# PARTICULARS: 50% inhibitory concentration on the enzymatic activity of JNK; 3.33 μM ATP in substrate solution, 30 minutes
pIC50: −log10 of the molar value.
OBSERVED PROPERTY: pIC50

[
  {
    "COMPOUND": "O=C(NCc1ccco1)c1cc2c(/C=C/c3cccc(F)c3)n[nH]c2cn1",
    "EXPERIMENTAL RESULT": 6.24
  },
  {
    "COMPOUND": "CC(C)[C@@H](CO)NC(=O)c1cc(F)c2[nH]nc(/C=C/c3cccnc3)c2c1",
    "EXPERIMENTAL RESULT": 6.93
  },
  {
    "COMPOUND": "O=C(NC(CO)c1ccccc1)c1cc2c(-c3ccc4ccccc4c3)n[nH]c2s1 (centres unmarked)",
    "EXPERIMENTAL RESULT": 6.84
  },
  {
    "COMPOUND": "COc1c(-c2nc(C)n[nH]2)ccc2[nH]nc(/C=C/c3cccc(F)c3)c12",
    "EXPERIMENTAL RESULT": 6.39
  },
  {
    "COMPOUND": "O=C(NCc1ccco1)c1ccc2[nH]nc(/C=C/c3cccs3)c2c1F",
    "EXPERIMENTAL RESULT": 6.93
  },
  {
    "COMPOUND": "NCc1nnc(-c2cc(F)c3[nH]nc(/C=C/c4ccc(F)cc4)c3c2)[nH]1",
    "EXPERIMENTAL RESULT": 7.18
  },
  {
    "COMPOUND": "O=C(Nc1ccc2[nH]nc(/C=C/c3ccc(F)cc3)c2n1)c1ccco1",
    "EXPERIMENTAL RESULT": 6.93
  },
  {
    "COMPOUND": "O=C(Nc1cc(F)c2[nH]nc(/C=C/c3cccnc3)c2c1)c1ccco1",
    "EXPERIMENTAL RESULT": 6.78
  }
]
